- assayed-target: KRAS G12V (Homo sapiens (Human), UniProt P01116+P62937, G12V)
- Sequence (P01116-2 other isoform, or with tags, fused parts or gaps G12V): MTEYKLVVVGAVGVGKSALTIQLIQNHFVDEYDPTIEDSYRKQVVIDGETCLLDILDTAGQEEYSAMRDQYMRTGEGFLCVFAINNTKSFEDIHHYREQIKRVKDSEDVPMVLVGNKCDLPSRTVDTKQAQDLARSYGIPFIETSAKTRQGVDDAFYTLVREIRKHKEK
- Sequence (P62937 whole entry): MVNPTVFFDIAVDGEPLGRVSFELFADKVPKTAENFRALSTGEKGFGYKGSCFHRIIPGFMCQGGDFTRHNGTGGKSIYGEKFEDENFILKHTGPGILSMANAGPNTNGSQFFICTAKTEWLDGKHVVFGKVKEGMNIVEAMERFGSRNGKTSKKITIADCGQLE
- method-notes: Ras-Raf (BRAF RBD) disruption / FRET / MOA assay, KRAS G12V
- Assay type: biochemical
- condition-description: read-out: IC50* KRAS G12V FRET data
Entries and their IC50

[
  {
    "compound": "CCn1c(-c2cnccc2C(C)C)c2c3cc(ccc31)-c1cc(O)cc(c1)C[C@H](NC(=O)[C@H](C(C)C)N(C)C(=O)[C@H]1CCN(C(=O)C#CCN(C)C)C1)C(=O)N1CCC[C@H](N1)C(=O)OCC(C)(C)C2",
    "IC50": "0.1 to 1 µM"
  },
  {
    "compound": "CCn1c(-c2cccnc2[C@H](C)OC)c2c3cc(ccc31)-c1cccc(c1)C[C@H](NC(=O)[C@H](C(C)C)N1CCC3(CN(C(=O)C#CC(C)(C)N(C)C)C3)C1=O)C(=O)N1CCC[C@H](N1)C(=O)OCC(C)(C)C2 (atropisomer, axis not shown)",
    "IC50": "1 to 10 µM"
  },
  {
    "compound": "C=CC(=O)N(C)[C@H]1C[C@@H](N(C)C(=O)N(C)[C@H](C(=O)N[C@H]2Cc3nc(cs3)-c3ccc4c(c3)c(c(-c3cccnc3[C@H](C)OC)n4CC)CC(C)(C)COC(=O)[C@@H]3CCCN(N3)C2=O)C(C)C)C1 (atropisomer, axis not shown)",
    "IC50": "0.1 to 1 µM"
  },
  {
    "compound": "CCn1c(-c2cccnc2COC)c2c3cc(ccc31)-c1cc(O)cc(c1)C[C@H](NC(=O)[C@@H](C(C)C)N(C)C(=O)[C@H]1CCN(C(=O)C#CCN3CCOCC3)C1)C(=O)N1CCC[C@H](N1)C(=O)OCC(C)(C)C2",
    "IC50": "> 10 µM"
  }
]

---

Entries and their IC50
- assayed-target: NRAS Q61K (Homo sapiens (Human), UniProt P01111+P62937, Q61K)
- Sequence (P01111 whole entry Q61K): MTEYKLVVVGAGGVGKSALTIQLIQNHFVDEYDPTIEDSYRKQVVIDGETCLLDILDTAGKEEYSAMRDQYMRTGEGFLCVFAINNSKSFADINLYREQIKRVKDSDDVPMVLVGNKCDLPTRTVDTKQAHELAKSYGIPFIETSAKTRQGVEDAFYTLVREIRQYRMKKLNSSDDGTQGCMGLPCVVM
- Sequence (P62937 whole entry): as the sequence (P62937 whole entry) above
- method-notes: Ras-Raf (BRAF RBD) disruption / FRET / MOA assay, NRAS Q61K
- Type: biochemical
- condition-description: NRAS Q61K; Ras-Raf disruption/FRET/MOA assay; read-out: IC50* NRAS Q61K FRET data
measured-parameter: IC50

[
  {
    "molecule": "C=CC(=O)N1CCO[C@H]2CN(C(=O)N(C)[C@H](C(=O)N[C@H]3Cc4cccc(n4)-c4ccc5c(c4)c(c(-c4cccnc4[C@H](C)OC)n5CC)CC(C)(C)COC(=O)[C@@H]4CCCN(N4)C3=O)C(C)C)C[C@H]21 (atropisomer, axis not shown) [Example A597]",
    "value-reported": "100 to 1000 nM"
  },
  {
    "molecule": "C=CC(=O)N1CC2(CCN2C(=O)N(C)[C@H](C(=O)N[C@H]2Cc3cccc(c3)-c3ccc4c(c3)c(c(-c3cccnc3[C@H](C)OC)n4CC)CC(C)(C)COC(=O)[C@@H]3CCCN(N3)C2=O)C(C)C)C1 (atropisomer, axis not shown) [Example A684]",
    "value-reported": "100 to 1000 nM"
  },
  {
    "molecule": "CCn1c(-c2cccnc2[C@H](C)OC)c2c3cc(ccc31)C1=CCCN(C1)C[C@H](NC(=O)[C@H](C(C)C)N(C)C(=O)C1(F)CCN(C(=O)C#CC(C)(C)N(C)C)CC1)C(=O)N1CCC[C@H](N1)C(=O)OCC(C)(C)C2 (atropisomer, axis not shown) [Example A591]",
    "value-reported": "1000 to 10000 nM"
  },
  {
    "molecule": "CCn1c(-c2cccnc2[C@H](C)OC)c2c3cc(ccc31)-c1cccc(c1)C[C@H](NC(=O)C(COC1CN(C(=O)C#CC(C)(C)N(C)C)C1)C(C)C)C(=O)N1CCC[C@H](N1)C(=O)OCC(C)(C)C2 (some centres unmarked) [Example A316]",
    "value-reported": "> 10000 nM"
  },
  {
    "molecule": "CCn1c(-c2cccnc2[C@H](C)OC)c2c3cc(ccc31)-c1csc(n1)C[C@H](NC(=O)[C@H](C(C)C)N(C)C(=O)N1C[C@H]3CN(C(=O)C#CC(C)(C)N(C)C)CC[C@H]31)C(=O)N1CCC[C@H](N1)C(=O)OCC(C)(C)C2 (atropisomer, axis not shown) [Example A624]",
    "value-reported": "100 to 1000 nM"
  },
  {
    "molecule": "CCn1c(-c2cccnc2[C@H](C)OC)c2c3cc(ccc31)-c1csc(n1)C[C@H](NC(=O)[C@H](C(C)C)N(C)C(=O)N(C)C1CN(C(=O)/C=C/C3CN(C)C3)C1)C(=O)N1CCC[C@H](N1)C(=O)OCC(C)(C)C2 (atropisomer, axis not shown) [Example A690]",
    "value-reported": "100 to 1000 nM"
  },
  {
    "molecule": "CCn1c(-c2cccnc2[C@H](C)OC)c2c3cc(ccc31)C1=CCCN(C1)C[C@H](NC(=O)[C@@H](COC1CN(C(=O)C#CC(C)(C)N(C)C)C1)C(C)C)C(=O)N1CCC[C@H](N1)C(=O)OCC(C)(C)C2 (atropisomer, axis not shown) [Example A663]",
    "value-reported": "> 10000 nM"
  },
  {
    "molecule": "C=CC(=O)N1CC[C@H](C(=O)N(C)[C@H](C(=O)N[C@H]2Cc3cc(O)cc(c3)-c3ccc4c(c3)c(c(-c3c(C)cccc3C)n4CC)CC(C)(C)COC(=O)[C@@H]3CCCN(N3)C2=O)C(C)C)C1 [Example A226]",
    "value-reported": "> 10000 nM"
  }
]
